Listed below: cAMP production activity (%) values for each entry.
Measured On: UniProtKB Q03431
Sequence (Q03431 27-593): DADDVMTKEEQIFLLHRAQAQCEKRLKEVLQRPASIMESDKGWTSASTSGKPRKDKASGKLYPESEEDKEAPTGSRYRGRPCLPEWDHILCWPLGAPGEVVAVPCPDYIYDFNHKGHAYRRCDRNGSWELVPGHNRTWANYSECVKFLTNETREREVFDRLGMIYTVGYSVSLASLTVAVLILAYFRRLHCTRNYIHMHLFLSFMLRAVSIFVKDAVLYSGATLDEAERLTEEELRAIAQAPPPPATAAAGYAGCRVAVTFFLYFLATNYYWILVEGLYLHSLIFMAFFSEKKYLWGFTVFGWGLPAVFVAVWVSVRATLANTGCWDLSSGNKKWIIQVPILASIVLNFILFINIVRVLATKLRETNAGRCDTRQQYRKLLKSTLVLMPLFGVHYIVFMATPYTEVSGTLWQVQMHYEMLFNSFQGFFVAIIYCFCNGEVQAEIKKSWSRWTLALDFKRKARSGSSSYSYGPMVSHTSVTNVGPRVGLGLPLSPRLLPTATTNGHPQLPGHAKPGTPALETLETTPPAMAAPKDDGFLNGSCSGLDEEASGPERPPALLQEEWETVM
Assay Explanation: In vitro cAMP signal activity in HKRK-B7 cells (LLC-PK1 cells overexpressing the human PTH1 receptor)
Format: cell-based
Stated Conditions: HKRK-B7 cells; compound at 1×10^−3 M; cAMP produced as percentage of that produced by hPTH(1-34) at 100 nM

{"Compound": "Cc1cc(N(C)C(N)=O)cc(C)c1CCS(=O)(=O)N1CCC2(CC1)N=C(C1CCC(CC(F)(F)F)CC1)NC2=O (stereo not drawn)", "cAMP production activity (%)": 98}
{"Compound": "Cc1cc(N2C(=O)CNC2=O)ccc1CCS(=O)(=O)N1CCC2(CC1)N=C(C1CCC(/C=C/C(F)F)CC1)NC2=O (stereo not drawn)", "cAMP production activity (%)": 77}
{"Compound": "Cc1cc(C(=O)N2CCC(O)(CF)CC2)cc(C)c1CCS(=O)(=O)N1CCC2(CC1)N=C(c1ccc(F)c(C(F)(F)F)c1)NC2=O", "cAMP production activity (%)": 100}
{"Compound": "CC(=O)N(CCO)c1cc(C)c(CCS(=O)(=O)N2CCC3(CC2)N=C(c2cccc(OC(F)(F)F)c2)NC3=O)cc1F", "cAMP production activity (%)": 77}
{"Compound": "CC(=O)Nc1ccc(CCS(=O)(=O)N2CCC3(CC2)N=C([C@H]2CC[C@H](/C=C/C(F)F)CC2)NC3=O)c(C)c1", "cAMP production activity (%)": 59}
{"Compound": "Cc1cc(N(C)C(N)=O)cc(C)c1/C=C/S(=O)(=O)N1CCC2(CC1)N=C(CCCCCCCCCCCO)NC2=O", "cAMP production activity (%)": 116}
